# Test Description: Clinical study: bupivacaine plasma pharmacokinetics after sponge implantation
# Assay type: in vivo, human
# Experimental Parameters: female, human, 150 mg, mean, n=12, three sponges, 150 mg bupivacaine HCl, read-out: Cmax
Where a name gives a salt, the structure may show the parent alone.
Readout: Cmax (ng/mL)
Quick note: give the figure in ng/mL, leave out the unit.

Need Cmax, item CCCCN1CCCCC1C(=O)Nc1c(C)cccc1C (stereo not shown) [Bupivacaine Hydrochloride]
225

----------
# Test Description: Clinical study: bupivacaine plasma pharmacokinetics after sponge implantation
# Format: in vivo, human
# Experimental Parameters: female, human, mean, n=11, three sponges, 150 mg
Counter-ions that a name gives are not always drawn.
Readout: AUC(0-inf) (ng·h/mL)
Quick note: give the figure in ng·h/mL, leave out the unit.

Need AUC(0-inf), item CCCCN1CCCCC1C(=O)Nc1c(C)cccc1C (stereo not shown) [Bupivacaine Hydrochloride]
6360

----------
# Test Description: Clinical study: bupivacaine plasma pharmacokinetics after sponge implantation
# Type: in vivo, human
# Experimental Parameters: female, human, n=12, three sponges, 150 mg, column head Mean, marked *
Counter-ions that a name gives are not always drawn.
Readout: Tmax (h)
Quick note: give the figure in h, leave out the unit.

Need Tmax, item CCCCN1CCCCC1C(=O)Nc1c(C)cccc1C (stereo not shown) [Bupivacaine Hydrochloride]
12

----------
# Test Description: Clinical study: bupivacaine plasma pharmacokinetics after sponge implantation
# Format: in vivo, human
# Experimental Parameters: female, human, 150 mg, after implantation of three bupivacaine-collagen sponges, 150 mg, read-out: mean Cmax
Readout: Cmax (ng/mL)
Quick note: give the figure in ng/mL, leave out the unit.

Need Cmax, item CCCCN1CCCCC1C(=O)Nc1c(C)cccc1C (stereo not shown)
220

All figures here come from patent USRE47826E1.
